All values here come from the NIST ThermoML archive (doi:10.1021/je200457q).

settings: 298.15 K; 101.33 kPa; Liquid; Vibrating tube method
Numbers after ± are expanded uncertainties.
assay.metric: mass density
Answer with the figure and its unit, nothing else.

Known results for compounds:
CCCCO [butan-1-ol] : 805.71 ± 0.15 kg/m3
CC(C)O [propan-2-ol] : 781.23 ± 0.15 kg/m3
CCO [ethanol] : 785.46 ± 0.15 kg/m3
CCCO [propan-1-ol] : 799.56 ± 0.15 kg/m3

Turning to the following compound.
Data request: What value of mass density has been reported for the following compound? C=CC(C)(O)CCC=C(C)C (stereo not given) [3,7-dimethyl-1,6-octadien-3-ol]
Data returned: 857 ± 0.62 kg/m3
